assay: protein stability index of a GFP-peptide fusion (GPS, HEK-293T) (PSI 1-6); higher = more stable; conditions: treatment: MLN4924 1 uM, 8 h; c terminus: a fixed tail appended;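 also: 24-mer peptide tiles fused after GFP, lentivirally expressed, FACS-sorted into six equal bins by GFP/DsRed ratio, decoded by Illumina sequencing, PSI is the read-weighted mean bin number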
measure: protein stability index
No unit in the answer, please; the number alone is enough.

{"seq.string": "LLPVQVVTEHPLELIRVEVEILDL [PCDHGC5]", "numeric.value": 3.05}
{"seq.string": "GIAQVKIQGQNKEMLAAACQMFLG [FLOT1]", "numeric.value": 2.69}
{"seq.string": "FSSSSQEAFAASAVGSGERRGGGP [ZBTB22]", "numeric.value": 4.03}

[in] Tell me its protein stability index given AGEFTGWEKVGSGGFGQVYKVRHV [RIPK4] as the entry.
[out] 2.25

[in] Tell me its protein stability index given FAVLHWKPPQNPVDTYDVQVTAPG [TNXB] as the entry.
[out] 2.68

[in] Tell me its protein stability index given LLQNEFVGFMWRQRGRVISLWERL [MCOLN1] as the entry.
[out] 2.68

[in] Tell me its protein stability index given GCDPLVKPVGRQACDLQPCPTEPP [ADAMTSL2] as the entry.
[out] 4.54

* * *

Reported values of protein stability index for individual entries
assay: protein stability index of a GFP-peptide fusion (GPS, HEK-293T) (PSI 1-6); higher = more stable; settings: treatment: MLN4924 1 uM, 8 h; c terminus: a fixed tail appended
No unit in the answer, please; the number alone is enough.

{"seq.string": "QQLHQLPRGRLDLATQSLTVETCR [LRRC45]", "protein stability index": 3.9}
{"seq.string": "FWNIKQMWDTKTLGLRQHHCRKCG [WDFY1]", "protein stability index": 2.86}
{"seq.string": "ADDPDDGPVPGTPGLPGSTGNPKS [SPNS1]", "protein stability index": 5.49}
{"seq.string": "AYNHRTDLFKSFPGPMDWVPRYTG [ADAMTS4]", "protein stability index": 2.82}
{"seq.string": "QNAALRGELSQARGQEPARADQLC [PRPH]", "protein stability index": 5.02}
{"seq.string": "VPYHIARIPYTKSQTEAHYSCQSK [P2RY14]", "protein stability index": 3.53}
{"seq.string": "RRTPPGQQRPHPRSHSREPRAERK [ELOA2]", "protein stability index": 5.58}
{"seq.string": "RTRDYKKTSLAPYVKVFEHFLENL [PRIM1]", "protein stability index": 2.48}

[in] Tell me its protein stability index given MLGKYNTPVSYRMAKTLVFSKVKT [ACSBG2] as the entry.
[out] 2.35

[in] Tell me its protein stability index given LLRHQRIHTGERPYKCPECGKSFS [ZNF263] as the entry.
[out] 3.58

[in] Tell me its protein stability index given ENLIRERSQQQEPLLCPSYQSYFK [KRT33B] as the entry.
[out] 3.59

[in] Tell me its protein stability index given VPVHSFASLNIKTTVPEVEPPQDS [PRPH] as the entry.
[out] 4.99

[in] Tell me its protein stability index given FLLRNSQRTVGQLMELCRLYHRAD [EDARADD] as the entry.
[out] 2.23

[in] Tell me its protein stability index given QETAEFFLSLDIPIGELYGLSESS [ACSBG2] as the entry.
[out] 2.47

[in] Tell me its protein stability index given IPGLPGLRGLPGERGTPGLPGPKG [SCARA5] as the entry.
[out] 4.42

[in] Tell me its protein stability index given ARVKAFNKTGVSPYSKTLVLQTSE [TRIM9] as the entry.
[out] 3.34

[in] Tell me its protein stability index given LIYGSMEMFPAAQQLYRHGKAYRF [JAGN1] as the entry.
[out] 2.21

[in] Tell me its protein stability index given YISHRELGDCMRTLGYMPTEMELL [CABP4] as the entry.
[out] 2.48

[in] Tell me its protein stability index given MSSVQQQPPPPRRVTNVGSLLLTP [WASL] as the entry.
[out] 3.75

[in] Tell me its protein stability index given LLDELMGRDRNLAPDEKRSNVRWD [LUC7L3] as the entry.
[out] 3.64

[in] Tell me its protein stability index given AKVGPGLPDGCQPLQLLREMRQAL [CBY2] as the entry.
[out] 2.82

[in] Tell me its protein stability index given EECKDRERPMYGRDSAYQSITHYR [EMD] as the entry.
[out] 4.13

[in] Tell me its protein stability index given VSVFIGVLIDLWKITKVMDVRLDR [CLPTM1] as the entry.
[out] 2.97

[in] Tell me its protein stability index given WAEIAKMLPGRTDNAVKNHWNSTI [MYBL2] as the entry.
[out] 2.16

[in] Tell me its protein stability index given KAVLENALRNFACLTTGDVIAINY [UFD1] as the entry.
[out] 2.3
